Where do the numbers come from? From PubChem BioAssay AID2060486.

Would you mind telling me the reported viability, T/C of each entry?
test system: IGROV1 complex spheroids (HUVEC, MSC), viability % test/control; experiment: Anticancer human tumor IGROV1 cell line growth inhibition [GQUAD]; settings: second compound 0.316 µM; first compound 0.0316 µM; stronger effect = lower value;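 also: spheroids exposed to compounds for 7 days before readout; 100% = DMSO vehicle control viability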
Give bare numbers, in %.

The cases that follow already have their viability, T/C on record.
{"columns": ["compound", "output-unit", "viability, T/C"],
 "data": [
  ["CC(C)n1c(=O)n(C)c2cnc3cc(F)c(-c4ccc(OCCCN5CCCCC5)nc4)cc3c21 + Cc1[nH]c2ccc(F)cc2c1-c1nc2c3cccnc3c3ncccc3c2[nH]1", "%", 76.4],
  ["CCc1c2c(nc3ccc(O)cc13)-c1cc3c(c(=O)n1C2)COC(=O)[C@]3(O)CC + CN(C)c1ccc(Nc2c3ccc(NC(=O)CCN4CCCC4)cc3nc3cc(NC(=O)CCN4CCCC4)ccc23)cc1", "%", 8.69]
]}

Hi, could you look up viability, T/C for each item in my list?
1. C=CCn1c(=O)c2cnc(Nc3ccc(N4CCN(C)CC4)cc3)nc2n1-c1cccc(C(C)(C)O)n1 + Cc1[nH]c2ccc(F)cc2c1-c1nc2c3cccnc3c3ncccc3c2[nH]1
2. COc1cccc2c1C(=O)c1c(O)c3c(c(O)c1C2=O)CC(O)(C(=O)CO)CC3OC1CC(N)C(O)C(C)O1 (stereo unspecified) + Cc1[nH]c2ccc(F)cc2c1-c1nc2c3cccnc3c3ncccc3c2[nH]1

Data returned:
40.6
34.7

Give viability, T/C for each of the items listed below.
1. CCCS(=O)(=O)Nc1ccc(F)c(C(=O)c2c[nH]c3ncc(-c4ccc(Cl)cc4)cc23)c1F + CN(C)c1ccc(Nc2c3ccc(NC(=O)CCN4CCCC4)cc3nc3cc(NC(=O)CCN4CCCC4)ccc23)cc1
2. CC1COCCN1c1cc(-c2ccnn2C)c2ccnc(-c3ccn[nH]3)c2n1 (stereo unspecified) + Cc1[nH]c2ccc(F)cc2c1-c1nc2c3cccnc3c3ncccc3c2[nH]1
3. O=C(NO)c1cnc(N2CCN(S(=O)(=O)c3ccc4ccccc4c3)CC2)nc1 + Cc1cnc(CNC(=O)c2c(=O)c3ccc(N4CCCN(C)CC4)nc3n3c2sc2ccccc23)cn1
4. COc1cccc2c1C(=O)c1c(O)c3c(c(O)c1C2=O)CC(O)(C(=O)CO)CC3OC1CC(N)C(O)C(C)O1 (stereo unspecified) + CN(C)c1ccc(Nc2c3ccc(NC(=O)CCN4CCCC4)cc3nc3cc(NC(=O)CCN4CCCC4)ccc23)cc1
5. Nc1ccn(C2OC(CO)C(O)C2(F)F)c(=O)n1 (stereo unspecified) + Cc1cnc(CNC(=O)c2c(=O)c3ccc(N4CCCN(C)CC4)nc3n3c2sc2ccccc23)cn1
6. COc1cc(C2c3cc4c(cc3C(OC3OC5COC(C)OC5C(O)C3O)C3COC(=O)C23)OCO4)cc(OC)c1O (stereo unspecified) + Cc1cnc(CNC(=O)c2c(=O)c3ccc(N4CCCN(C)CC4)nc3n3c2sc2ccccc23)cn1
7. O=C(c1cc(Cc2n[nH]c(=O)c3ccccc23)ccc1F)N1CCN(C(=O)C2CC2)CC1 + CN(C)c1ccc(Nc2c3ccc(NC(=O)CCN4CCCC4)cc3nc3cc(NC(=O)CCN4CCCC4)ccc23)cc1

Data returned:
86.2
48.1
11
57.2
11.5
25.1
66.1
